Test system: OVCAR-8 ovarian
Assay: NCI-60 one-dose screen, 48 h
Settings: 10 µM unless noted
About 83,000 compounds went through this panel and 20% of them were active in at least one assay; those are over-represented in the sample as a whole. Calls of active or inactive are those of the source. How the source made its calls: active means growth percent below 10; inactive means the rest.
Hello, when you answer, please use one of the following outcomes: active, inactive

Data request: Entry COc1ccc(C(C)=O)cc1S(=O)(=O)Nc1c(N)nc(SC)[nH]c1=O : call = ?
Data returned: inactive

Data request: Entry CC1CCN(CCOc2ccc(CNc3ccc4nc(CCC5CCCCC5)[nH]c4c3)cc2)CC1 : call = ?
Data returned: inactive

Data request: Entry CCCC/C(CC)=N\NS(=O)(=O)c1ccc([N+](=O)[O-])cc1 : call = ?
Data returned: inactive

Data request: Entry O=S(=O)(NCCNc1nccc(-c2c(-c3ccc(F)c(O)c3)nc3occn23)n1)c1ccc(Cl)cc1 : call = ?
Data returned: inactive

Data request: Entry CCCCCCCCCCCCCCCCOCCCOP(=O)(O)C1CCCN(O)C1=O (stereo unspecified) : call = ?
Data returned: inactive

Data request: Entry N#CSc1c[nH]c2cccc(/C=C/C(=O)/C=C(/C=C/c3cccc4[nH]cc(SC#N)c34)OB(F)F)c12 : call = ?
Data returned: active

Data request: Entry CCSc1oc(-c2ccccc2)nc1[P+](c1ccccc1)(c1ccccc1)c1ccccc1 : call = ?
Data returned: active

Data request: Entry CCOC(=O)c1c(NC(=O)c2cccc(C(F)(F)F)c2)sc2c(CN(C)C)c(O)ccc12 : call = ?
Data returned: inactive

Data request: Entry O=C(O)CCCN1C(=O)/C(=C/c2cn(-c3ccccc3)nc2-c2ccc([N+](=O)[O-])cc2)SC1=S : call = ?
Data returned: inactive

Data request: Entry Cc1[nH]c(=O)[nH]c(=O)c1Br : call = ?
Data returned: inactive

Data request: Entry O=C(Nc1ccc(Oc2cccc(Cl)c2)c(Cl)c1)c1cnccn1 : call = ?
Data returned: inactive

Data request: Entry C#Cc1c2c(c(OC)c3c1OCO3)[C@H]([C@H]1OC(=O)c3c1ccc(OC)c3OC)N(C)CC2 : call = ?
Data returned: inactive

Data request: Entry C1CN(SSN2CCOCC2)CCO1 : call = ?
Data returned: active

Data request: Entry Fc1cccc(Oc2ccc(Nc3ncnc4ccc(OCCCN5CCOCC5)cc34)cc2Cl)c1 : call = ?
Data returned: inactive

Data request: Entry CC(C)Cn1cnc2c(=O)[nH]c(N)nc21 : call = ?
Data returned: inactive

Data request: Entry COc1cc(OC)c(NC(=O)c2cc3ccccc3cc2O)cc1Cl : call = ?
Data returned: inactive

Data request: Entry CCOC(=O)C1=C(C)NC(=O)NC1c1c(Cl)n(CCCl)c2ccccc12 (stereo unspecified) : call = ?
Data returned: inactive

Data request: Entry COCCn1cc(-c2nc(-c3cc4cccnc4[nH]3)cs2)c2cc(OC)ccc21 : call = ?
Data returned: inactive

Data request: Entry O=S(=O)(NCCCNc1nccc(-c2c(-c3ccc(F)c(O)c3)nc3sccn23)n1)c1ccccc1 : call = ?
Data returned: inactive

Data request: Entry COC(=O)[C@@H](CCCCNC(=O)[C@]12CCC(C)(C)C[C@@H]1C1=CC[C@@H]3[C@@]4(C)C/C(=C/c5ccco5)C(=O)C(C)(C)[C@@H]4CC[C@@]3(C)[C@]1(C)CC2)NC(=O)[C@]12CCC(C)(C)C[C@@H]1C1=CC[C@@H]3[C@@]4(C)C/C(=C/c5ccco5)C(=O)C(C)(C)[C@@H]4CC[C@@]3(C)[C@]1(C)CC2 : call = ?
Data returned: inactive

Data request: Entry CCCCCCCC[C@@H]1N[C@@H](C(=O)OC)Cc2c1[nH]c1ccccc21 : call = ?
Data returned: inactive
